- ASSAY: chemical genetic growth profiling, strain panel (AID 1159580);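 further: tested at 20 µM; growth read once vehicle control cultures reached saturation at 30 °C; 1 = growth at the plate median or of vehicle wells; lower values mean less growth of the strain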
- PROTOCOL_CONDITIONS: S. cerevisiae deletion strains, growth OD, locus YEL061C, strain CIN8 (second series), hits give low values
The campaign covered roughly 5,500 compounds. About 2,000 (36%) were called active. Inconclusive results (about 18%) are left out. This is one part of the list.
OBSERVATION_TYPE: normalized growth
Answer field: number only, no words.

Give its normalized growth value. Item: C=CC1C2=CCOC(=O)C2=COC1OC1OC(CO)C(O)C(O)C1O (stereo not given)
1.03

Give its normalized growth value. Item: O=c1c(O)c(-c2ccc(O)cc2O)oc2cc(O)cc(O)c12
0.992

Give its normalized growth value. Item: COc1ccc(-c2oc3cc(O[C@H]4O[C@H](CO)[C@@H](O)[C@H](O)[C@H]4O)c(OC)c(O)c3c(=O)c2OC)cc1O
1

Give its normalized growth value. Item: COC(=O)c1c(C)cc(OC)cc1O
0.98

Give its normalized growth value. Item: NC(N)=NC(=O)c1nc(Cl)c(N)nc1N
1.03

Give its normalized growth value. Item: COC(=O)[C@]1(C)CCC[C@]2(C)c3ccc(C(C)C)cc3C(=O)CC12 (stereo not given in full)
0.948

Give its normalized growth value. Item: CC(C)c1c(O)c(-c2cc3c(c(C(C)C)c2O)CCC2C(C)(C)CCC[C@]32C)cc2c1CCC1C(C)(C)CCC[C@]21C (stereo not given in full)
0.993

Give its normalized growth value. Item: COc1ccc(-c2cc(=O)c3c(O)cc(O[C@@H]4O[C@H](CO[C@H]5O[C@H](C)[C@@H](O)[C@H](O)[C@@H]5O)[C@@H](O)[C@H](O)[C@H]4O)cc3o2)cc1O
1.03

Give its normalized growth value. Item: Cc1[nH]ccc2c1[nH]c1cc(=O)ccc12
0.989

Give its normalized growth value. Item: O=c1c(O)c(-c2ccc(O)c(O)c2)oc2cc(O)cc(O)c12
0.963

Give its normalized growth value. Item: CC(=O)O[C@@H]1CC2C(C)(C)C(=O)C=C[C@]2(C)C2CC[C@@]3(C)[C@H](c4ccoc4)OC(=O)[C@H]4O[C@]43[C@@]21C (stereo not given in full)
0.973

Give its normalized growth value. Item: N#Cc1nn(-c2c(Cl)cc(C(F)(F)F)cc2Cl)c(N)c1S(=O)C(F)(F)F (stereo not given)
0.973

Give its normalized growth value. Item: CC(=O)OC(C)C[N+](C)(C)C (stereo not given)
0.995

Give its normalized growth value. Item: COC(=O)c1c(C)cc(O)cc1O
1.01

Give its normalized growth value. Item: O=c1c(O)c(-c2ccc(O)c(O)c2)oc2c(O[C@@H]3O[C@H](CO)[C@H](O)[C@@H](O)[C@H]3O)c(O)cc(O)c12
1.03

Give its normalized growth value. Item: CCCCOc1cc(C(=O)NCCN(CC)CC)c2ccccc2n1
0.941

Give its normalized growth value. Item: C[N+](C)(C)CC(O)CC(=O)O (stereo not given)
0.981

Give its normalized growth value. Item: CC[n+]1c(-c2ccccc2)c2cc(N)ccc2c2ccc(N)cc21
0.946

Give its normalized growth value. Item: CC1(C)C=CC(=O)[C@@]2(C)C1CC(=O)[C@]1(C)C2CC[C@@]2(C)[C@H](c3ccoc3)OC(=O)C3OC321 (stereo not given in full)
0.997

Give its normalized growth value. Item: CC(=O)Oc1ccc2c(c1C(C)C)CCC1C(C)(C)CCC[C@]21C (stereo not given in full)
1.02

Give its normalized growth value. Item: CC1(C)C(=O)C=C[C@@]2(C)C1CC(=O)[C@]1(C)C2CC[C@@]2(C)[C@H](c3ccoc3)OC(=O)[C@H]3O[C@]321 (stereo not given in full)
0.996

Give its normalized growth value. Item: CC1(C)C2CC(=O)[C@]3(C)C(CC[C@@]4(C)[C@H](c5ccoc5)OC(=O)C5OC543)[C@@]2(C)[C@@H](O)C[C@H]1O (stereo not given in full)
0.994

Give its normalized growth value. Item: O=C(Cc1cccs1)NC1C(=O)N2C(C(=O)[O-])=C(C[n+]3ccccc3)CSC12 (stereo not given)
1

Give its normalized growth value. Item: OCC(O)C(O)C(O)C(O)C(O)CO (stereo not given)
0.979

Give its normalized growth value. Item: CCc1cc(C(N)=S)ccn1
0.994

Give its normalized growth value. Item: COC(=O)[C@@]1(C)CCC[C@]2(C)c3ccc(O)c(C(C)C)c3CCC12 (stereo not given in full)
0.981

Give its normalized growth value. Item: O=c1cc(-c2ccc(O)cc2)oc2cc(O[C@@H]3O[C@H](CO)[C@@H](O)[C@H](O)[C@H]3O)cc(O)c12
1

Give its normalized growth value. Item: CC1O[C@@H](Oc2c(-c3ccc(O)c(O)c3)oc3cc(O)cc(O)c3c2=O)[C@H](O)[C@H](O)[C@H]1O (stereo not given in full)
0.995

Give its normalized growth value. Item: CCC(=O)c1c(O)cc(O)cc1O
0.992

Give its normalized growth value. Item: CC(C)c1c(O)ccc2c1CCC1[C@@](C)(C=O)CCC[C@]21C (stereo not given in full)
0.99

====

- ASSAY: chemical genetic growth profiling, strain panel (AID 1159580);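 further: tested at 20 µM; growth read once vehicle control cultures reached saturation at 30 °C; 1 = growth at the plate median or of vehicle wells; lower values mean less growth of the strain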
- PROTOCOL_CONDITIONS: S. cerevisiae deletion strains, growth OD, locus YKL193C, strain SDS22, hits give low values
The whole screen tested about 5,500 compounds, of which about 2,000 (36%) were called active. Inconclusive results (about 18%) are left out. The list shows a part of the results.
OBSERVATION_TYPE: normalized growth
Answer field: number only, no words.

Give its normalized growth value. Item: COc1cc(Br)cc(C=Nc2ccc(Sc3ccccc3)nc2Sc2ccccc2)c1O
0.962

Give its normalized growth value. Item: COCCCNC(=S)N/N=C\c1cc(Cl)cc(Cl)c1O
0.953

Give its normalized growth value. Item: CCOC(=O)N/N=C\c1cc(Cl)cc(Cl)c1O
0.932

Give its normalized growth value. Item: COCCCNC(=S)N/N=C\c1cc(Br)ccc1O
0.954

Give its normalized growth value. Item: CC(C)(C)C(=O)NC(=S)N/N=C\c1cc(Cl)cc(Cl)c1O
0.921

Give its normalized growth value. Item: O=C1Nc2ccccc2/C1=C/c1ccc(C(F)(F)F)cc1Cl
0.969

====

- ASSAY: chemical genetic growth profiling, strain panel (AID 1159580);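 further: tested at 20 µM; growth read once vehicle control cultures reached saturation at 30 °C; 1 = growth at the plate median or of vehicle wells; lower values mean less growth of the strain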
- PROTOCOL_CONDITIONS: S. cerevisiae deletion strains, growth OD, locus YJL129C, strain trk1, hits give low values
In all, about 5,500 compounds went through this assay and about 2,000 (36%) were called active. About 18% were inconclusive and are not listed. Some of the results follow.
I'd appreciate it if you could supply normalized growth values for the items below.
Answer field: number only, no words.

Give its normalized growth value. Item: O=C(Cc1cccs1)NC1C(=O)N2C(C(=O)[O-])=C(C[n+]3ccccc3)CSC12 (centres undefined)
0.99

Give its normalized growth value. Item: CC(=O)O[C@]1(C(C)=O)CCC2C3C=C(Cl)C4=CC(=O)[C@@H]5C[C@@H]5[C@]4(C)C3CC[C@@]21C (some centres undefined)
1.01

Give its normalized growth value. Item: CCC(N)C(O)c1ccc(O)c(O)c1 (centres undefined)
0.993

Give its normalized growth value. Item: Cc1ccccc1OCC(O)CO (centres undefined)
0.971

====

I'd appreciate it if you could supply normalized growth values for the items below.
- ASSAY: chemical genetic growth profiling, strain panel (AID 1159580);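 further: tested at 20 µM; growth read once vehicle control cultures reached saturation at 30 °C; 1 = growth at the plate median or of vehicle wells; lower values mean less growth of the strain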
- PROTOCOL_CONDITIONS: S. cerevisiae deletion strains, growth OD, locus YDL074C, strain BRE1, hits give low values
The whole screen tested about 5,500 compounds, of which about 2,000 (36%) were called active. Inconclusive results (about 18%) are left out. The list shows a part of the results.
Answer field: number only, no words.

Give its normalized growth value. Item: CC(=O)OC(C)C[N+](C)(C)C (configuration not stated)
1.01

Give its normalized growth value. Item: CC(=O)[C@@]1(O)CCC2C3C[C@H](C)C4=CC(=O)C=CC4(C)[C@@]3(F)[C@@H](O)C[C@@]21C (some centres not stated)
0.981

Give its normalized growth value. Item: COc1cc(OC)c2ccc(=O)oc2c1
0.979

Give its normalized growth value. Item: CCC1OC(=O)[C@H](C)C(=O)[C@H](C)[C@@H](OC2O[C@H](C)C[C@H](N(C)C)[C@H]2O)[C@](C)(OC)C2(CCCn3cnc(-c4cccnc4)c3)C[C@@H](C)C(=O)[C@H](C)[C@H]3N(C2)C(=O)O[C@]13C (some centres not stated)
1.02

Give its normalized growth value. Item: Cc1cc(OC(=O)c2c(C)cc(OC(=O)c3c(C)cc(O)cc3O)cc2O)cc(O)c1C(=O)O
1.01

Give its normalized growth value. Item: COC(=O)c1c(C)cc(OC)cc1O
1.02

Give its normalized growth value. Item: CC(C)N(CCC(C(N)=O)(c1ccccc1)c1ccccn1)C(C)C (configuration not stated)
0.976
